Cited source: the PETadex activity labels (doi:10.1016/j.ijbiomac.2025.149745)

# Substrate: pNPB
# Measurement protocol: Proxy for plastic degradation [kcat/Km (catalytic efficiency)] (mM⁻¹s⁻¹)
# Protocol conditions: pH 7
Reported Proxy for plastic degradation values follow for various proteins
Form rule: numeric answer, no unit written next to it.

Some solved entries appear below for comparison.
Protein	Proxy for plastic degradation
unnamed (protein) MNFPRASRLMQAAVLGGLMAVSAAATAQTNPYARGPNPTAASLEASAGPFTVRSFTVSRPSGYGAGTVYYPTNAGGTVGAIAIVPGYTARQSSIKWWGPRLASHGFVVITIDTNSTLDQPSSRSSQQMAALRQVASLNGTSSSPIYGKVDTARMGVMGHSMGGGGSLISAANNPSLKAAAPQAPWDSSTNFSSVTVPTLIFACENDSIAPVNSSALPIYDSMSRNAKQFLEINGGSHSCANSGNSNQALIGKKGVAWMKRFMDNDTRYSTFACENPNSTRVSDFRTANCS	45.8
unnamed (protein) MNFPRASRLMQAAVLGGLMAVSAAATAQTNPYARGPNPTAASLEASAGPFTVRSFTVSRPSGYGAGTVYYPTNAGGTVGAIAIVPGYTARQSSIKWWGPRLASHGFVVITIDTNSTLDQPSSRSSQQMAALRQVASLNGTSSSPIYGKVDTARMGVMGHSMGGGGSLISAANNPSLKAAAPQAPWDSSTNFSSVTVPTLIFAAENDSIAPVNSSALPIYDSMSRNAKQFLEINGGSHFAANSGNSNQALIGKKGVAWMKRFMDNDTRYSTFACENPNSTRVSDFRTANCS	2.1

Query string: # Proxy for plastic degradation lookup, item unnamed (protein) MDGVLWRVRTAALMAALLALAAWALWASPSVEAQSNPYQRGPNPTRSALTADGPFSVATYTVSRLSVSGFGGVIYYPTGTSLTFGGIAMSPGYTADASSLAWLGRRLASHGFVVLVINTNSRFDYPDSRASQLSAALNYLRTSSPSAVRARLDANRLAVAGWSMGGGGTLRIAEQNPSLKAAVPLTPWHTDKTFNTSVPVLIVGAEADTVAPVSQHAIPFYQNLPSTTPKVYVELDNASHSAPNSNNAAISVYTISWMKLWVDNDTRYRQFLCNVNDPALSDFRTNNRHCQCQ
Result string: 28
